Entry source: ChEMBL document CHEMBL4118225

# protocol.description: Metabolic stability in human whole blood assessed as parent compound remaining at 1 uM after 180 mins by LC-MS analysis
# Assay type: ADME, tissue-based
# condition.context: read-out: Stability
reported.endpoint: remaining at 3 h, 1 µM (%)

Solved cases (2 shown):
CN(C)C(=O)C(C#N)=Cc1ccc(-c2nc3cnc4[nH]ccc4c3n2C2CCCCC2)o1 :: 49.4
N#C/C=C/c1ccc(-c2nc3cnc4[nH]ccc4c3n2C2CCCCC2)o1 :: 98.8

[I] N#CC(C#N)=Cc1ccc(-c2nc3cnc4[nH]ccc4c3n2C2CCCCC2)o1
[II] CN1CCN(C(=O)C(C#N)=Cc2ccc(-c3nc4cnc5[nH]ccc5c4n3C3CCCCC3)o2)CC1
Lowest remaining at 3 h, 1 µM? choose I or II Indicate your choice by writing its label.
I
(I: 1.5%, II: 47%)
